# Measured On: MdP2′GT (Malus domestica)
# Construct: gene P2'GT
# Method Notes: Inhibition of phloridzin formation by purified MdP2′GT from 270 uM UDPG and 20 uM phloretin, 50 mM Tris/HCl pH 7.5, 5 mM DTT, 30 °C, 30 min, product quantified by HPLC-DAD.
# Assay type: biochemical
# Stated Conditions: read-out: IC50/
# Sequence (A0A0X9XIE3 1-483): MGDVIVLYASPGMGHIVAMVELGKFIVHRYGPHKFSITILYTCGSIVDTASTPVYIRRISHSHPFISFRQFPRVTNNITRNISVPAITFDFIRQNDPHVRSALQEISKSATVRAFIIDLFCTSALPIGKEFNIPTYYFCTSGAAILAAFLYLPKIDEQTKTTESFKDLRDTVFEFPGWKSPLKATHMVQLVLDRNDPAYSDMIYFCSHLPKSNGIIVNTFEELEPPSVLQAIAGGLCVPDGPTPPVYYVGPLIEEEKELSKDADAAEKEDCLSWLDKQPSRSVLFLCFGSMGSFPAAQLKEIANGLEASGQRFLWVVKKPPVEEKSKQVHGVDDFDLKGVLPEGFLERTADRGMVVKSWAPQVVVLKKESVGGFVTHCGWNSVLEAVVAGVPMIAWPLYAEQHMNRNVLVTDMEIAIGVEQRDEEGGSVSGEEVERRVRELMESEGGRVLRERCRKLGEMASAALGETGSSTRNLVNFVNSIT
Measurement Label: pIC50
The meaning of pIC50 here: minus log10 of the concentration in molar units.

Recorded result, O=C(CCc1ccc(O)cc1)c1c(O)cc(O[C@@H]2O[C@H](CO)[C@@H](O)[C@H](O)[C@H]2O)cc1O , pIC50: 2.52

Recorded result, O=c1ccn([C@@H]2O[C@H](COP(=O)(O)O)[C@@H](O)[C@H]2O)c(=O)[nH]1 [UMP, uridine monophosphate] , pIC50: 2.40

Recorded result, O=C(CCc1ccc(O)c(O)c1)c1c(O)cc(O)cc1O[C@@H]1O[C@H](CO)[C@@H](O)[C@H](O)[C@H]1O [3-hydroxyphloridzin] , pIC50: 2.60

Recorded result, O=c1ccn([C@@H]2O[C@H](COP(=O)(O)OP(=O)(O)O)[C@@H](O)[C@H]2O)c(=O)[nH]1 [UDP, uridine diphosphate] , pIC50: 4.00

----------
# Measured On: MdP2′GT (Malus domestica, UniProt A0A0X9XIE3)
# Method Notes: Effects of metal ions and other compounds on purified MdP2′GT activity
# Type: biochemical, Malus x domestica
# Stated Conditions: addition at 5 mM; compared to a control in which none is added
# Sequence (A0A0X9XIE3 entry or part of it): as the sequence (A0A0X9XIE3 1-483) above
Measurement Label: Relative activity (%)
Express your answer in %, writing the number without its unit.

Recorded result, [Ba+2].[Cl-].[Cl-] [BaCl2] , Relative activity: 99.03

Recorded result, O=S(=O)([O-])[O-].[Mn+2] [MnSO4] , Relative activity: 47.41

Recorded result, [Cl][Cu][Cl] [CuCl2] , Relative activity: 0.00

----------
# Measured On: MdP2′GT (Malus domestica, UniProt A0A0X9XIE3)
# Method Notes: Effects of metal ions and other compounds on purified MdP2′GT activity
# Format: biochemical, Malus x domestica
# Stated Conditions: concentration of inhibitor required to reduce the original MdP2′GT activity by 50%; read-out: IC50
Assign pIC50 to each entry below.
The meaning of pIC50 here: minus log10 of the concentration in molar units.

Recorded result, O=c1ccn([C@@H]2O[C@H](COP(=O)(O)OP(=O)(O)OP(=O)(O)O)[C@@H](O)[C@H]2O)c(=O)[nH]1 [UTP, uridine triphosphate] , pIC50: 2.60

Recorded result, [Cl][Cu][Cl] , pIC50: 5.00

Recorded result, [Ca+2].[Cl-].[Cl-] , pIC50: 2.26

Recorded result, O=S(=O)([O-])[O-].[Mn+2] , pIC50: 2.35

Recorded result, CCN1C(=O)C=CC1=O [N-Ethylmaleimide] , pIC50: 3.55

Recorded result, [Cl][Fe]([Cl])[Cl] , pIC50: 2.19

Recorded result, [Cl][Al]([Cl])[Cl] , pIC50: 2.10

----------
# Measured On: MdP2′GT (Malus domestica, UniProt A0A0X9XIE3)
# Method Notes: Effects of metal ions and other compounds on purified MdP2′GT activity
# Type: biochemical, Malus x domestica
# Stated Conditions: addition at 0.5 mM; compared to a control in which none is added
Measurement Label: Relative activity

>>> print(df.to_string())
         query_smiles                               measured_on       observed_value
0        [Cl][Ni][Cl]  MdP2′GT (Malus domestica, UniProt A0A0X9XIE3)  negligibly affected
1          [Cl-].[K+]  MdP2′GT (Malus domestica, UniProt A0A0X9XIE3)  negligibly affected
2  [Ba+2].[Cl-].[Cl-]  MdP2′GT (Malus domestica, UniProt A0A0X9XIE3)  negligibly affected
